Target: human ether-à-go-go-related gene (hERG) potassium channel (human);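 further: peak tail current of the secondary pulse compared with the same well before compound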
Sequence (Q12809 whole entry, looked up): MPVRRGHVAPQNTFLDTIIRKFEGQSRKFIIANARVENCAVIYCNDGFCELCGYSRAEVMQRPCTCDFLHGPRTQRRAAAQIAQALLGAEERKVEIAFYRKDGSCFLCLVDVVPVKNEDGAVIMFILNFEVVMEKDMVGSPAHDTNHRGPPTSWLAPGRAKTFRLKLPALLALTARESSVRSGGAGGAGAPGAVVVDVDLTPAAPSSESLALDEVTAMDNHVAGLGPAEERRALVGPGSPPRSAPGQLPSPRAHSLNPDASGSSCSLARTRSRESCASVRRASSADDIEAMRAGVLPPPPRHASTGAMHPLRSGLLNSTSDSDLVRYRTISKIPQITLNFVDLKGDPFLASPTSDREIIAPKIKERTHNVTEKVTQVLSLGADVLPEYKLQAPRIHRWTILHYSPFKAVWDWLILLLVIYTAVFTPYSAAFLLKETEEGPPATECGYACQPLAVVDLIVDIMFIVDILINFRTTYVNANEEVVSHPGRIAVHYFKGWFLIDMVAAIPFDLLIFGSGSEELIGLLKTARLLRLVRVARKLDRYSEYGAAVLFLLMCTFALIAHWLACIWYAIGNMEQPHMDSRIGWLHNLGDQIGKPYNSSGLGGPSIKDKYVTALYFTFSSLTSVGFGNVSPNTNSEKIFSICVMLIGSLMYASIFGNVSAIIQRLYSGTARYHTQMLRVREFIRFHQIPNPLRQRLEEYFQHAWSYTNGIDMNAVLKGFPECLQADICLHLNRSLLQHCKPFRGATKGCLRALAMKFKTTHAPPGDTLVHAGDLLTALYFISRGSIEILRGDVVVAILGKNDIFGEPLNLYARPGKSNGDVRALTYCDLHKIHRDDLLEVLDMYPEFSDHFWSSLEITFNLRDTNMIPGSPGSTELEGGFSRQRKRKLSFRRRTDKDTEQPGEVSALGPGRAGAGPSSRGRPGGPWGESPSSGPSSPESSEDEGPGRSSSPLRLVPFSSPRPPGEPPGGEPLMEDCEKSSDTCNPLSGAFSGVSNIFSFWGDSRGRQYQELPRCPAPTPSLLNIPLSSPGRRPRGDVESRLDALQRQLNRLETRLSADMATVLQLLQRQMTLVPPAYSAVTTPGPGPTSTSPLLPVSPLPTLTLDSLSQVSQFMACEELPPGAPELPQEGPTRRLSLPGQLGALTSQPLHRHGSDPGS
Assay: primary screen, population patch clamp on CHO cells stably expressing hERG; higher = less effect of the substance
The campaign covered roughly 310,000 compounds. About 14,000 (4.5%) showed an effect of 50% or more. The effect is printed as a negative number. What follows is part of a selection rich in strong results, with near analogues and random picks from the rest.
Experimental readout: hERG current change (%, negative = inhibition) at 10uM (%)
Answer with a number only, understood to be in %.

// below: answered compounds
1) CCOc1c2ccc(C(=O)N[C@H](C)C3CCCCC3)cc2nn1CCOC ... -18.2
2) CCN(C(=O)C(C)OC(=O)CCCNC(=O)c1ccc(Cl)cc1)c1ccccc1 (centres unmarked) ... -25.1
3) CC(=O)Nc1ccc(C(=O)OCC(=O)Nc2ccc([N+](=O)[O-])cc2C(F)(F)F)cc1 ... 7.22
4) OC1CCCN(Cc2ccc3ccc4cccc5ccc2c3c45)C1 (centres unmarked) ... -4.79
5) COCc1cc(CN2CCCC(C(=O)Nc3ccc(-c4ccco4)cc3)C2)ccc1OC (centres unmarked) ... -7.12

Return reported hERG current change (%, negative = inhibition) at 10uM; argument: COc1ccc(-c2c(C#Cc3ccsc3)c3cc(-c4ccc5[nH]ccc5c4)ccc3n2C)cc1
24.1

Values from paper PMC4336329
